Tested on: suppressor cell activities induced in thermally injured mice
Type: cell-based, BALB/c mice
Conditions: 1 μg/kg of aconite-alkaloid given twice to contrasuppressor cell donors; normal model 12413 ± 1438, susceptibility model 2650 ± 70
measure: incorporation of ^3 H-thymidine

Ask | Requested field: incorporation of ^3 H-thymidine. Item: COCC12CN(C)C3C4C(OC)C1C3(C(OC)CC2O)C1CC2(O)C(O)C1C4(O)C(O)C2OC (stereo not drawn)
Reply | 15791 ± 2778 CPM ± SE

Ask | Requested field: incorporation of ^3 H-thymidine. Item: COCC12CCC(OC)C34C5CC6(O)C(OC)C(O)C(O)(C5C6OC(=O)c5ccccc5)C(C(OC)C13)C4N(C)C2 (stereo not drawn)
Reply | 21319 ± 903 CPM ± SE

Ask | Requested field: incorporation of ^3 H-thymidine. Item: CCN1CC2(COC)C(O)CC(OC)C34C5CC6(O)C(OC)C(O)C(O)(C5C6OC(=O)c5ccccc5)C(C(OC)C23)C14 (stereo not drawn)
Reply | 16140 ± 1738 CPM ± SE

Ask | Requested field: incorporation of ^3 H-thymidine. Item: COCC12CN(C)C3C4C(OC)C1C3(C(OC)CC2O)C1CC2(O)C(OC)C(=O)C4C1C2OC(=O)c1ccccc1 (stereo not drawn) [16-epi-pyromesaconitine]
Reply | 16891 ± 2232 CPM ± SE

Ask | Requested field: incorporation of ^3 H-thymidine. Item: CCN1CC2(COC)C(O)CC(OC)C34C5CC6(O)C(OC)C(=O)C(C5C6OC(=O)c5ccccc5)C(C(OC)C23)C14 (stereo not drawn) [16-epi-pyraconitine]
Reply | 15654 ± 1209 CPM ± SE

Ask | Requested field: incorporation of ^3 H-thymidine. Item: CCN1CC2(COC)C(O)CC(OC)C34C5CC6(O)C(OC)C(O)C(O)(C5C6OC(=O)c5ccc(OC)cc5)C(C(OC)C23)C14 (stereo not drawn)
Reply | 12720 ± 1578 CPM ± SE

###

Assay: Acute toxicity of aconite-alkaloids
Settings: in vivo
measure: LD50

Ask | Requested field: LD50. Item: CCN1CC2(COC)C(O)CC(OC)C34C5CC6(O)C(OC)C(O)C(O)(C5C6OC(=O)c5ccc(OC)cc5)C(C(OC)C23)C14 (stereo not drawn)
Reply | 20 to 500 mg/kg

Ask | Requested field: LD50. Item: COCC12CN(C)C3C4C(OC)C1C3(C(OC)CC2O)C1CC2(O)C(O)C1C4(O)C(O)C2OC (stereo not drawn)
Reply | 20 to 500 mg/kg

Ask | Requested field: LD50. Item: CCN1CC2(COC)C(O)CC(OC)C34C5CC6(O)C(OC)C(=O)C(C5C6OC(=O)c5ccccc5)C(C(OC)C23)C14 (stereo not drawn) [16-epi-pyraconitine]
Reply | 20 to 500 mg/kg

Ask | Requested field: LD50. Item: COCC12CN(C)C3C4C(OC)C1C3(C(OC)CC2O)C1CC2(O)C(OC)C(=O)C4C1C2OC(=O)c1ccccc1 (stereo not drawn) [16-epi-pyromesaconitine]
Reply | 20 to 500 mg/kg

Ask | Requested field: LD50. Item: COCC12CCC(OC)C34C5CC6(O)C(O)C5C(O)(C(O)C6OC)C(C(OC)C13)C4N(C)C2 (stereo not drawn)
Reply | 20 to 500 mg/kg

Ask | Requested field: LD50. Item: CCN1CC2(COC)C(O)CC(OC)C34C5CC6(O)C(OC)C(O)C(O)(C5C6OC(=O)c5ccccc5)C(C(OC)C23)C14 (stereo not drawn)
Reply | 20 to 500 mg/kg

###

For each of the compounds below, state its incorporation of ^3 H-thymidine.
Tested on: suppressor cell activities induced in thermally injured mice
Format: cell-based, BALB/c mice
Conditions: 1 μg/kg of aconite-alkaloid given twice to contrasuppressor cell donors; normal model 12413 ± 1438, susceptibility model 2650 ± 70

Ask | Identify the measured incorporation of ^3 H-thymidine of C=C1[C@H]2C[C@@H]3[C@H]4N5C[C@@]6(C)[C@H]7[C@@H]5C[C@]3([C@@H]1O)[C@@](O)(C2)[C@]74C[C@@H](OC(=O)c1ccccc1)[C@@H]6O for suppressor cell activities induced in thermally injured mice.
Reply | 12831 ± 2255 CPM ± SE

Ask | Identify the measured incorporation of ^3 H-thymidine of C=C1C2CCC3(C4CC5C6(C)CCCC5(C(O4)N(CCO)C6)C3C2)C1O (centres unmarked) for suppressor cell activities induced in thermally injured mice.
Reply | 17655 ± 1879 CPM ± SE

Ask | Identify the measured incorporation of ^3 H-thymidine of CCN1CC2(COC)CCC(O)C34C5CC6C(OC)CC(O)(C5C6O)C(C(OC)C23)C14 (centres unmarked) for suppressor cell activities induced in thermally injured mice.
Reply | 13744 ± 526 CPM ± SE

Ask | Identify the measured incorporation of ^3 H-thymidine of COCC12CCC(OC)C34C5CC6(O)C(O)C5C(O)(C(O)C6OC)C(C(OC)C13)C4N(C)C2 (centres unmarked) for suppressor cell activities induced in thermally injured mice.
Reply | 14111 ± 2232 CPM ± SE

Ask | Identify the measured incorporation of ^3 H-thymidine of COCC12CN(C)C3C4C(OC)C1C3(C(OC)CC2O)C1CC2(O)C(OC)C(O)C4(O)C1C2OC(=O)c1ccccc1 (centres unmarked) for suppressor cell activities induced in thermally injured mice.
Reply | 14754 ± 1832 CPM ± SE
